- System: SF-295 CNS
- assay-details: NCI-60 one-dose screen, 48 h (100 = growth as untreated, 0 = no growth, -100 = all killed)
- experimental-context: 10 µM unless noted
- Procedure: Cells are grown in 96 well plates and exposed to the test compound for 48 hours. Compounds are tested at a single concentration, which is 10^-5 M for most compounds. The reported endpoint is percent growth (GI% or GIPRCNT), where numbers from 0 - 100% represent growth inhibition, and numbers from -100% - 0 represent cell death. For example, a value of 40 represents 60% growth inhibition. A value of 0 means no net growth occurred over the course of the experiment. […]
This is part of a sample that, as a whole, favours compounds with a hit. Of some 83,000 tested, about 20% had one in any assay.
metric: growth (%)
Quick reminder: number only, in %, skip the unit.

>  <compound>
COc1ccc(-c2ccc(SCC(=O)NCCc3ccc(S(N)(=O)=O)cc3)nn2)cc1

>  <target>
SF-295 CNS

>  <growth [%]>
84.9

$$$$

Kindly note the recorded growth for O=C(Nc1ccc(C(F)(F)F)cc1)Nc1ccc2oc(=O)ccc2c1 , which is -7.66

Kindly note the recorded growth for NS(=O)(=O)c1ccc(-n2cc(-c3cccc(NC(=O)c4ccc(Cl)c(C(F)(F)F)c4)c3)nn2)cc1 , which is 7.53

Kindly note the recorded growth for Cc1ccc(-n2c(-c3cc4ccccc4nc3Cl)noc2=O)cc1 , which is 76.1

----------
- Tested on: CCRF-CEM leukemia
- assay-details: NCI-60 one-dose screen, 48 h (100 = growth as untreated, 0 = no growth, -100 = all killed)
- experimental-context: 10 µM unless noted
- Experimental: Growth inhibition of the CCRF-CEM human tumor cell line is measured as a screen for anti-cancer activity. Cells are grown in 96 well plates and exposed to the test compound for 48 hours. Compounds are tested at a single concentration, which is 10^-5 M for most compounds. The reported endpoint is percent growth (GI% or GIPRCNT), where numbers from 0 - 100% represent growth inhibition, and numbers from -100% - 0 represent cell death. For example, a value of 40 represents 60% growth inhibition. […]
About 83,000 compounds went through this panel and 20% of them were active in at least one assay; those are over-represented in the sample as a whole.
// label = rule met if growth is not less than 30%, otherwise rule not met

[ask] Reported growth reaches at least 30% for COc1cccc(-c2c(C#N)c(-c3ccc(Cl)cc3)nc3n[nH]c(-c4ccc(Cl)cc4)c23)c1 ?
[reply] rule not met

[ask] Reported growth reaches at least 30% for CCCCc1c(Nn2cnnn2)no[n+]1[O-] ?
[reply] rule met

[ask] Reported growth reaches at least 30% for CN1CCN(c2ccc(C(=O)/C=C/c3ccc(Br)cc3)cc2)CC1 ?
[reply] rule not met

----------
- System: HCT-15 colon
- assay-details: NCI-60 one-dose screen, 48 h
- experimental-context: 10 µM unless noted
This is part of a sample that, as a whole, favours compounds with a hit. Of some 83,000 tested, about 20% had one in any assay. Activity calls are given as the source filed them. Rule for the calls: active = growth percent below 10; inactive = the rest.
In this exercise, the only acceptable responses are class 1 (active), class 0 (inactive)

>  <molecule>
Cc1ccc(-c2nc(Nc3ccccc3S(N)(=O)=O)c3ccccc3n2)cc1

>  <class-label>
class 0

$$$$
>  <molecule>
CC1(C)CC[C@]2(C(=O)O)CC[C@]3(C)C(=CCC4[C@@]5(C)C[C@@H](O)[C@@H]6OC(c7cccc(Br)c7)OC[C@@]6(C)C5CC[C@]43C)C2C1 (some centres undefined)

>  <class-label>
class 0

$$$$
>  <molecule>
O=C(/C=C/c1cccc(OCc2ccc(F)cc2)c1)c1nc2ccccc2[nH]1

>  <class-label>
class 1

$$$$

[ask] Record request — test call for N#Cc1c(-c2ccc(Cl)cc2)nc2n[nH]c(-c3ccc(Cl)cc3)c2c1-c1cccs1
[reply] class 0
